# Protocol text: Antiplatelet activity in citrated human platelet rich plasma assessed as inhibition of ADP-induced platelet aggregation incubated for 10 mins at 37 degC by light transmission aggregometry
# Format: functional
Residues, ends and D or L forms follow the SMILES beside them. *: point of attachment. X3 = OC[C@H]1O[C@H](OCCn2cc(C*)nn2)[C@@H](O)[C@@H](O)[C@@H]1O; X4 = OC[C@H]1O[C@@H](OCCn2cc(C*)nn2)[C@H](O)[C@@H](O)[C@@H]1O; X6 = O[C@@H]1[C@@H](O)[C@@H](OCCn2cc(C*)nn2)O[C@H](CF)[C@H]1O; X1 = OC[C@H]1O[C@@H](OCCn2cc(C*)nn2)[C@H](O)[C@@H](O)[C@H]1O; X2 = O[C@@H]1[C@@H](O)[C@H](OCCn2cc(C*)nn2)O[C@H](CF)[C@H]1O; X5 = O[C@@H]1[C@H](O)[C@@H](OCCn2cc(C*)nn2)O[C@H](CF)[C@H]1O
Measured metric: pIC50
A value of pIC50 is the negative decimal logarithm of a concentration given in moles per litre.

Would you please look over these solved cases?
{"Compound": "N=C(N)NCCC[C@H](N)C(=O)NCC(=O)N[C@@H](CC(=O)O)C(=O)N[C@@H](CSCc1cn(CCO[C@H]2O[C@H](CO)[C@@H](O)[C@H](O)[C@@H]2O)nn1)C(=O)O (H-RGDC(X3)-OH)", "pIC50": 4.32}
{"Compound": "N=C(N)NCCC[C@H](N)C(=O)NCC(=O)N[C@@H](CC(=O)O)C(=O)N[C@@H](CSCc1cn(C[C@H]2O[C@H](O[C@H]3O[C@H](Cn4cc(CSC[C@H](NC(=O)[C@H](CC(=O)O)NC(=O)CNC(=O)[C@@H](N)CCCNC(=N)N)C(=O)O)nn4)[C@@H](O)[C@H](O)[C@H]3O)[C@@H](O)[C@@H](O)[C@@H]2O)nn1)C(=O)O", "pIC50": 4.12}

Which pIC50 is reported for this compound? "N=C(N)NCCC[C@@H]1NC(=O)[C@H](CSCc2cn(CCO[C@@H]3O[C@H](CF)[C@@H](O)[C@H](O)[C@H]3O)nn2)NC(=O)[C@H](Cc2ccccc2)NC(=O)[C@H](CC(=O)O)NC(=O)CNC1=O"
3.83

Same again, this time with N=C(N)NCCC[C@H](N)C(=O)NCC(=O)N[C@@H](CC(=O)O)C(=O)N[C@@H](CSCc1cn(CCO[C@@H]2O[C@H](CF)[C@@H](O)[C@H](O)[C@H]2O)nn1)C(=O)O (H-RGDC(X2)-OH)
4.18

Next record, please: N=C(N)NCCC[C@H](N)C(=O)NCC(=O)N[C@@H](CC(=O)O)C(=O)N[C@@H](CSCc1cn(CCO[C@@H]2O[C@H](CO)[C@@H](O)[C@H](O)[C@H]2O)nn1)C(=O)O (H-RGDC(X4)-OH)
4.36

Then what about the compound N=C(N)NCCC[C@H](N)C(=O)NCC(=O)N[C@@H](CC(=O)O)C(=O)N[C@@H](CSCc1cn(CCO[C@@H]2O[C@H](CO)[C@H](O)[C@H](O)[C@H]2O)nn1)C(=O)O (H-RGDC(X1)-OH) ?
4.64

And N=C(N)NCCC[C@H](N)C(=O)NCC(=O)N[C@@H](CC(=O)O)C(=O)N[C@@H](CSCc1cn(CCO[C@H]2O[C@H](CF)[C@@H](O)[C@H](O)[C@H]2O)nn1)C(=O)O (H-RGDC(X6)-OH) ?
4.59

Input N=C(N)NCCC[C@H](N)C(=O)NCC(=O)N[C@@H](CC(=O)O)C(=O)N[C@@H](CSCc1cn(CCO[C@H]2O[C@H](CF)[C@@H](O)[C@H](O)[C@@H]2O)nn1)C(=O)O (H-RGDC(X5)-OH)
4.63
